Experimental system: mTAAR5 (Mus musculus)
Construct: rho tag (rhodopsin-derived tag) (N); plasmid a gift from Prof; Liberles
Sequence (Q5QD14 1-337): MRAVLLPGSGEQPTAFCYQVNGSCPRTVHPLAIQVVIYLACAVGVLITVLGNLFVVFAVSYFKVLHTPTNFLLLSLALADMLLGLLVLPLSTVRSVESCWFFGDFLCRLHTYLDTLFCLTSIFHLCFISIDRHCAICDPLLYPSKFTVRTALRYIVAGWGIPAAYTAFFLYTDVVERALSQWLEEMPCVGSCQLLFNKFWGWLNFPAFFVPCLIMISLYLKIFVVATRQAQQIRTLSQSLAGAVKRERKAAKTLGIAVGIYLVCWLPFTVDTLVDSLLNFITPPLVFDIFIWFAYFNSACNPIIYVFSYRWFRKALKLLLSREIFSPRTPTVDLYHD
Assay notes: BRET cAMP assay, antagonistic activity against TMA
Assay context: HEK293 cells cotransfected with mTAAR5 and cAMP BRET (EPAC) biosensor; against TMA 10 μM; 3 independent experiments
Readout: IC50 (µM)
Supply the numeric figure in µM, leaving out any unit text.

compound=CCN(CC)CCOC(=O)c1cc(Cl)c(N)cc1OC readout=IC50 numeric_value=13
compound="CCCN(CCC)C1CCc2cccc(O)c2C1 (stereo not shown)" readout=IC50 numeric_value=3.8
compound=CN1CCC(c2c[nH]c3ccc(O)cc23)CC1 readout=IC50 numeric_value=2.7

Identify measured IC50 corresponding to `COc1cc(N)c(Cl)cc1C(=O)OCCCN1CCCCC1`
4.7
